Assay: Tmax in C57BL/6 mouse plasma at 24.5 mg/kg, sc administered as single dose measured 24 hrs by UPLC-MS/MS analysis
Type: ADME, organism-based
MEASUREMENT_NAME: Tmax

Give its Tmax value. Item: C[C@H](Cc1ccc(OCc2ccc(Br)c(Cl)c2)cc1)N(C)CC(=O)O
2 h

----------
Assay: Cmax in C57BL/6 mouse brain at 10.8 mg/kg, iv administered as single dose measured 24 hrs by UPLC-MS/MS analysis
Format: ADME, organism-based
Parameters: dose 10.8 mg/kg, route intravenous
MEASUREMENT_NAME: Cmax (ng/mL)
A number alone suffices; assume ng/mL.

Give its Cmax value. Item: C#CCN(C)[C@H](C)Cc1ccccc1 [SELEGILINE]
4220

----------
Assay: Ratio of AUClast in brain to plasma in C57BL/6 mouse at 23.4 mg/kg, sc administered as single dose measured 24 hrs by UPLC-MS/MS analysis
Assay type: ADME, organism-based
MEASUREMENT_NAME: Kp at 24 h
The answer should be written as a number, with no unit following it.

Give its Kp at 24 h value. Item: CN(CC(=O)O)[C@H](CC#N)Cc1ccc(OCc2ccc(Cl)c(Cl)c2)cc1
0.005

----------
Target: UniProt P21397
Sequence (P21397 whole entry): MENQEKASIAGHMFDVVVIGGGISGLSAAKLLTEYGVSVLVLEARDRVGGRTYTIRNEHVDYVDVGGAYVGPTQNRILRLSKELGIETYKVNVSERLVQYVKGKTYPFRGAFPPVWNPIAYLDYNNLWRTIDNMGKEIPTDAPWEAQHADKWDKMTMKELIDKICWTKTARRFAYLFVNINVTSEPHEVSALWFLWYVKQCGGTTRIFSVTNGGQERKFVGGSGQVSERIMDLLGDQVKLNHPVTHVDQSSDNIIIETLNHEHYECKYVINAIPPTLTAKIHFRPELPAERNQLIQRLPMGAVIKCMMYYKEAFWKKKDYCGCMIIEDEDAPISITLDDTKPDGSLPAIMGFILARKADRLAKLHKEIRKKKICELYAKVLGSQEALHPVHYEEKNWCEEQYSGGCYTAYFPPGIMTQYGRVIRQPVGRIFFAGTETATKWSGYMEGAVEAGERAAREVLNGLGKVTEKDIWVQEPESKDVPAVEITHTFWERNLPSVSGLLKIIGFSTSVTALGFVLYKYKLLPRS
Assay: Inhibition of human recombinant MAO-A expressed in baculovirus infected BTI-TN-5B1-4 insect cells using tyramine as substrate preincubated for 1 hr followed by substrate addition and measured after 30 mins by resazurin dye-based fluorescence assay
pIC50: −log10 of the molar value.
MEASUREMENT_NAME: pIC50

Below: 5 molecules and their reported pIC50.
smiles_representation=C[C@H](Cc1ccc(OCc2cccc(F)c2)cc1)N(C)CC(=O)O assay_value="< 4.30"
smiles_representation=C[C@H](Cc1ccc(OCc2ccccn2)cc1)N(C)CC(=O)O assay_value="< 4.30"
smiles_representation=CN(CC(=O)O)[C@H](CC#N)Cc1ccc(OCc2ccc(Cl)c(Cl)c2)cc1 assay_value=3.90
smiles_representation=CN(CC(=O)O)[C@H](CO)Cc1ccc(OCc2ccccc2)cc1 assay_value="< 4.30"
smiles_representation=C#CCN(C)[C@H](C)Cc1ccc(OCc2ccccc2)cc1 assay_value=6.79

Give its pIC50 value. Item: C[C@H](Cc1ccc(OCc2ccc(C#N)cc2)cc1)N(C)CC(=O)O
< 4.30

Then CN(CC(=O)O)[C@H](COCc1ccccc1)Cc1ccc(OCc2ccccc2)cc1 ?
< 4.30

Then COC(=O)[C@H](Cc1ccc(OCc2ccccc2)cc1)N(C)CC(=O)O ?
< 4.30

----------
Experiment: AUClast in C57BL/6 mouse brain at 23.4 mg/kg, sc administered as single dose measured 24 hrs by UPLC-MS/MS analysis
Format: ADME, organism-based
Set-up: dose 23.4 mg/kg, time 0 - last, route subcutaneous
MEASUREMENT_NAME: AUC(0-t) at 24 h (ng·h/mL)
A number alone suffices; assume ng·h/mL.

Give its AUC(0-t) at 24 h value. Item: CN(CC(=O)O)[C@H](CC#N)Cc1ccc(OCc2ccc(Cl)c(Cl)c2)cc1
176

----------
Reported remaining at 1 h, 1 µM values are given for each entry in this list.
Assay: Metabolic stability in mouse liver microsomes assessed as parent compound remaining at 1 uM after 60 mins in presence of NADPH by UPLC-MS/MS analysis
Assay type: ADME, microsome
Details: read-out: Stability
A number alone suffices; assume %.

Below: 3 molecules and their reported remaining at 1 h, 1 µM.
smiles_representation=C[C@H](Cc1ccc(OCc2ccc(Cl)c(Cl)c2)cc1)N(C)CC(=O)O measurement_name="remaining at 1 h, 1 µM" assay_value=89.5
smiles_representation=C[C@H](Cc1ccc(OCc2cccc(Cl)c2)cc1)N(C)CC(=O)O measurement_name="remaining at 1 h, 1 µM" assay_value=87.3
smiles_representation=C[C@H](Cc1ccc(OCc2ccc(Br)c(Cl)c2)cc1)N(C)CC(=O)O measurement_name="remaining at 1 h, 1 µM" assay_value=93.4

From here, focus on the item given below.
Give its remaining at 1 h, 1 µM value. Item: CN(CC(=O)O)[C@H](CC#N)Cc1ccc(OCc2ccc(Cl)c(Cl)c2)cc1
39
